Where do the numbers come from? From patent US5364864A.

Target: acetylcholinesterase (Homo sapiens)
Sequence (P22303 32-614): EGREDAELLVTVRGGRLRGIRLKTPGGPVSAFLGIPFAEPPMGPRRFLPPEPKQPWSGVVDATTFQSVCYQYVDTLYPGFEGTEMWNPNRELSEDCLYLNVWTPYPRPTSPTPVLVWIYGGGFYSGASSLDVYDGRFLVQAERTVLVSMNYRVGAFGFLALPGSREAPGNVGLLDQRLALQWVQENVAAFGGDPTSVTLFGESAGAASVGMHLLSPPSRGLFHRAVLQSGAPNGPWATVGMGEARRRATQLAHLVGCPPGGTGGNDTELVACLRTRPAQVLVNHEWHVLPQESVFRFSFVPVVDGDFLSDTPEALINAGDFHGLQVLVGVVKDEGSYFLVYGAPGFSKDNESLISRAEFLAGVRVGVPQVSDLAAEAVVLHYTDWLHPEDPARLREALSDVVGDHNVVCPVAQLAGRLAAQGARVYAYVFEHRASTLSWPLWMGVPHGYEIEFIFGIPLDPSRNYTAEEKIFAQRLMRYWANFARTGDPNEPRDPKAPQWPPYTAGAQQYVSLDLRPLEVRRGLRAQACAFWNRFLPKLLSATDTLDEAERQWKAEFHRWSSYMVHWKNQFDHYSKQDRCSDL

compound | IC50 [µM]
S=C(NCCC1CCN(Cc2ccccc2)CC1)Nc1ccccc1 [Compound 1] | 0.32
